target: Putative P2Y purinoceptor 10 (Mus musculus); assay: Agonist activity at mouse P2Y10 expressed in HEK293 cells co-transfected with AP-TGFalpha/Galphaq/i1 assessed as induction of ectodomain shedding of membrane bound AP-TGFalpha after 1 hr by p-NPP substrate based microplate reader analysis relative to control; type: cell-based
The source made the active and inactive calls. No cut-off for these calls is given here.
Property: Emax

CCCCCCCCCCCOc1ccccc1CCC(=O)O[C@@H]1CCOC[C@@H]1OP(=O)(O)OC[C@H](N)C(=O)O 19.3%
CCCCCCCCCCCOc1ccccc1CCC(=O)O[C@H]1CCOC[C@@H]1OP(=O)(O)OC[C@H](N)C(=O)O 11.1%
COC[C@H](COC(=O)CCc1ccccc1OCc1cccc(Oc2ccccc2)c1)OP(=O)(O)OC[C@H](N)C(=O)O inactive
CCCCCCCC/C=C\CCCCCCCC(=O)OC[C@@H](COC)OP(=O)(O)OC[C@H](N)C(=O)O inactive

* * *

target: Putative P2Y purinoceptor 10 (Mus musculus, UniProt Q8BFU7); experiment: Agonist activity at mouse P2Y10 expressed in HEK293 cells co-transfected with AP-TGFalpha/Galphaq/i1 assessed as induction of ectodomain shedding of membrane bound AP-TGFalpha after 1 hr by p-NPP substrate based microplate reader analysis
Sequence (Q8BFU7 whole entry, the tested form may be a part): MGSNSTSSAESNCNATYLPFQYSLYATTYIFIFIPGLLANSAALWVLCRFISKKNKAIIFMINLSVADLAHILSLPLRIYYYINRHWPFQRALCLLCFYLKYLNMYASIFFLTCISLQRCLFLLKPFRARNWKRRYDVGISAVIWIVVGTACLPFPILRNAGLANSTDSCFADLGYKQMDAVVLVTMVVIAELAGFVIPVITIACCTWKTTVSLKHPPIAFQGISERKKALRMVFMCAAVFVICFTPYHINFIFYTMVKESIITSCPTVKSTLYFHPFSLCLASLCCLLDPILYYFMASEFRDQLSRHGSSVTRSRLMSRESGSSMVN
Property: EC50 (nM)

Compound	Unit Text	EC50
CCCCCCCCCCCOc1ccccc1CCC(=O)O[C@@H]1CCOC[C@@H]1OP(=O)(O)OC[C@H](N)C(=O)O	nM	1300

1. CCCCCCCCCCCOc1ccccc1CCC(=O)OC1COCCC1OP(=O)(O)OC[C@H](N)C(=O)O (single isomer, unassigned)
2. CCCCCCCC/C=C\CCCCCCCC(=O)O[C@@H](C)COP(=O)(O)OC[C@H](N)C(=O)O
Ask: Lab log: flag the item ( 1 or 2 ) with the smaller EC50 figure. Label of pick, please.
Reply: 2
(2: 390 nM, 1: 1300 nM)

* * *

target: Putative P2Y purinoceptor 10 (Mus musculus, UniProt Q8BFU7); assay: Agonist activity at mouse P2Y10 expressed in HEK293 cells co-transfected with AP-TGFalpha/Galphaq/i1 assessed as induction of ectodomain shedding of membrane bound AP-TGFalpha after 1 hr by p-NPP substrate based microplate reader analysis
pEC50: −log10 of the molar value.
Property: pEC50

// solved cases for pEC50 follow
CCCCCCCCCCCOc1ccccc1CCC(=O)O[C@H]1CCOC[C@@H]1OP(=O)(O)OC[C@H](N)C(=O)O 7.92
CCCCCCCC/C=C\CCCCCCCC(=O)OCCCOP(=O)(O)OC[C@H](N)C(=O)O 7.70
CCCCCCCCCCCOc1ccccc1CCC(=O)O[C@H]1CCOC[C@H]1OP(=O)(O)OC[C@H](N)C(=O)O 6.38
CCCCCCCCCCCOc1ccccc1CCC(=O)OCCOP(=O)(O)OC[C@H](N)C(=O)O 8.24

a. CCCCCCCC/C=C\CCCCCCCC(=O)OC[C@@H](COCc1ccccc1)OP(=O)(O)OC[C@H](N)C(=O)O
b. CCCCCCCC/C=C\CCCCCCCC(=O)OCCOP(=O)(O)OC[C@H](N)C(=O)O
Ask: For this pair, a and b , which shows a numerically higher pEC50? Label of pick, please.
Reply: b
(b: 7.18, a: 5.85)

* * *

target: Putative P2Y purinoceptor 10 (Mus musculus); test: Agonist activity at mouse P2Y10 expressed in HEK293 cells co-transfected with AP-TGFalpha/Galphaq/i1 assessed as induction of ectodomain shedding of membrane bound AP-TGFalpha after 1 hr by p-NPP substrate based microplate reader analysis relative to control; assay type: cell-based
Property: Emax (%)

a. CCCCCCCCCCCOc1ccccc1CCC(=O)O[C@H]1COCC[C@@H]1OP(=O)(O)OC[C@H](N)C(=O)O
b. CCCCCCCC/C=C\CCCCCCCC(=O)OC[C@@H](COCc1ccccc1)OP(=O)(O)OC[C@H](N)C(=O)O
Ask: For this pair, a and b , which shows a numerically higher Emax? Label of pick, please.
Reply: a
